# TESTED_TARGET: Muscarinic acetylcholine receptor M4 (Mus musculus) (UniProt P32211)
# Sequence (P32211 whole entry, looked up): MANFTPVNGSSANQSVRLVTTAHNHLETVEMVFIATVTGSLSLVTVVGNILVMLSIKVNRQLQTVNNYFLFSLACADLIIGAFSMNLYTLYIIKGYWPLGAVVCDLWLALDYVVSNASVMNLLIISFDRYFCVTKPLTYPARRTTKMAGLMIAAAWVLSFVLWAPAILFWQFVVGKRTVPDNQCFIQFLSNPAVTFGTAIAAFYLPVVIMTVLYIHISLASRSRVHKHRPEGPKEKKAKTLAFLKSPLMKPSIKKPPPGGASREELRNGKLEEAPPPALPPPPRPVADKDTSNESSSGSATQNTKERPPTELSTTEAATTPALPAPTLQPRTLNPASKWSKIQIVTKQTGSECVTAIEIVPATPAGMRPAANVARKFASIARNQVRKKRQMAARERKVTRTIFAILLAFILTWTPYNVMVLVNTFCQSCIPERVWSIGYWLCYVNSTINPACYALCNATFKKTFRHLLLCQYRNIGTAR
# ASSAY_PROTOCOL: allosteric agonists of mouse M4 receptor, confirmation, cell-based (AID 643)
# REPORTED_CONDITIONS: HEK293 cells expressing M4, thallium flux fluorescence, 2 min
The source made the active and inactive calls. No rule for the calls is given here.
Your response should consist of one outcome taken from YES (active), NO (inactive)

Q: Kindly provide the recorded test outcome for the following compound: N#Cc1c(NC(=O)c2ccc(Br)o2)n(-c2ccccc2)c2nc3ccccc3nc12
Result: YES

Q: What do you have for CCCCNC(=O)Nc1ccnn1C1CCCCC1 ?
Result: YES

Q: Field entry: O=C(O)c1cc(O)c2c(c1)C(=O)c1cccc(O)c1C2=O
Result: NO

Q: Please do the same for CNS(=O)(=O)c1cccc(C(=O)OCC(=O)c2cc(C)n(-c3ccc4c(c3)OCO4)c2C)c1 as well.
Result: NO

// data source = PubChem BioAssay AID643
